molecular target: Dimer of Gag-Pol polyprotein [489-587] (Human immunodeficiency virus 1); construct: 489-587; experiment: Protease Inhibition Assay; conditions: pH 5.5; 30 °C
pIC50: −log10 of the molar value.

| compound | test-target | pIC50 |
| --- | --- | --- |
| CC[C@H]1[C@@H](OC(=O)N[C@@H](Cc2ccccc2)[C@H](O)CN2C[C@H]3CCCC[C@H]3CC2C(=O)NC(C)(C)C)CCS1(=O)=O (stereo partly drawn) | Dimer of Gag-Pol polyprotein [489-587] (Human immunodeficiency virus 1) | 8.27 |
| CC(C)(C)NC(=O)C1C[C@@H]2CCCC[C@@H]2CN1C[C@@H](O)[C@H](Cc1ccccc1)NC(=O)O[C@@H]1CCS(=O)(=O)C1 (stereo partly drawn) | Dimer of Gag-Pol polyprotein [489-587] (Human immunodeficiency virus 1) | 6.85 |
| C[C@H]1OCC[C@H]1OC(=O)N[C@@H](Cc1ccccc1)[C@H](O)CN1C[C@H]2CCCC[C@H]2CC1C(=O)NC(C)(C)C (stereo partly drawn) | Dimer of Gag-Pol polyprotein [489-587] (Human immunodeficiency virus 1) | 6.77 |
| CC(C)[C@H]1[C@@H](OC(=O)N[C@@H](Cc2ccccc2)[C@H](O)CN2C[C@H]3CCCC[C@H]3CC2C(=O)NC(C)(C)C)CCS1(=O)=O (stereo partly drawn) [hydroxyethylene isostere] | Dimer of Gag-Pol polyprotein [489-587] (Human immunodeficiency virus 1) | 7.96 |
| CC(C)(C)NC(=O)C1C[C@@H]2CCCC[C@@H]2CN1C[C@@H](O)[C@H](Cc1ccccc1)NC(=O)O[C@H]1CCS(=O)(=O)C1 (stereo partly drawn) | Dimer of Gag-Pol polyprotein [489-587] (Human immunodeficiency virus 1) | 7.12 |
| CC(C)[C@@H]1[C@H](OC(=O)N[C@@H](Cc2ccccc2)[C@H](O)CN2C[C@H]3CCCC[C@H]3CC2C(=O)NC(C)(C)C)CCS1(=O)=O (stereo partly drawn) | Dimer of Gag-Pol polyprotein [489-587] (Human immunodeficiency virus 1) | 8.52 |
| CC(C)C[C@H]1[C@@H](OC(=O)N[C@@H](Cc2ccccc2)[C@H](O)CN2C[C@H]3CCCC[C@H]3CC2C(=O)NC(C)(C)C)CCS1(=O)=O (stereo partly drawn) | Dimer of Gag-Pol polyprotein [489-587] (Human immunodeficiency virus 1) | 7.92 |
| C[C@@H]1OCC[C@@H]1OC(=O)N[C@@H](Cc1ccccc1)[C@H](O)CN1C[C@H]2CCCC[C@H]2CC1C(=O)NC(C)(C)C (stereo partly drawn) | Dimer of Gag-Pol polyprotein [489-587] (Human immunodeficiency virus 1) | 7.28 |
| CC(C)C[C@@H]1[C@H](OC(=O)N[C@@H](Cc2ccccc2)[C@H](O)CN2C[C@H]3CCCC[C@H]3CC2C(=O)NC(C)(C)C)CCS1(=O)=O (stereo partly drawn) | Dimer of Gag-Pol polyprotein [489-587] (Human immunodeficiency virus 1) | 7.52 |
| CC(C)(C)NC(=O)C1C[C@@H]2CCCC[C@@H]2CN1C[C@@H](O)[C@H](Cc1ccccc1)NC(=O)OCCS(C)(=O)=O (stereo partly drawn) | Dimer of Gag-Pol polyprotein [489-587] (Human immunodeficiency virus 1) | 5.99 |
| C[C@@H]1[C@H](OC(=O)N[C@@H](Cc2ccccc2)[C@H](O)CN2C[C@H]3CCCC[C@H]3CC2C(=O)NC(C)(C)C)CCS1(=O)=O (stereo partly drawn) [hydroxyethylene isostere] | Dimer of Gag-Pol polyprotein [489-587] (Human immunodeficiency virus 1) | 7.65 |
| CC[C@@H]1[C@H](OC(=O)N[C@@H](Cc2ccccc2)[C@H](O)CN2C[C@H]3CCCC[C@H]3CC2C(=O)NC(C)(C)C)CCS1(=O)=O (stereo partly drawn) | Dimer of Gag-Pol polyprotein [489-587] (Human immunodeficiency virus 1) | 7.88 |
| C[C@H]1[C@@H](OC(=O)N[C@@H](Cc2ccccc2)[C@H](O)CN2C[C@H]3CCCC[C@H]3CC2C(=O)NC(C)(C)C)CCS1(=O)=O (stereo partly drawn) | Dimer of Gag-Pol polyprotein [489-587] (Human immunodeficiency virus 1) | 7.94 |
